Can you tell me protein stability index for the items I'm about to list?
B1: PBXIP1 (parent)
chain: LQQLRARLQGLEADCVRGPDGVCL

# Variants of: B1
# PROTOCOL DETAILS: protein stability index of a GFP-peptide fusion (GPS, HEK-293T) (PSI 1-6); higher = more stable;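 note: lentivirally expressed fusions sorted by FACS into six bins by GFP to DsRed ratio, PSI derived from sequencing read proportions per bin multiplied by bin number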
# RUN CONDITIONS: c terminus: a fixed tail appended
Output: the number by itself.

Task item: Tell us which protein stability index value is on record for LFQLRARLQGLEADCVRGPDGVCL
Reply: 3.06

Task item: Tell us which protein stability index value is on record for LQQLRARLQGLEADCVRIPDGVCL
Reply: 1.87

Task item: Tell us which protein stability index value is on record for LQQLRARLQGLEADCVRGWDGVCL
Reply: 1.5

Task item: Tell us which protein stability index value is on record for LQQLRARLQGLEADCVRGPDWVCL
Reply: 2.07

Task item: Tell us which protein stability index value is on record for LQQLRARLQGLEADCYRGPDGVCL
Reply: 2.57

Task item: Tell us which protein stability index value is on record for LQQLGARLQGLEADCVRGPDGVCL
Reply: 2.78

Task item: Tell us which protein stability index value is on record for LQQLRAALQGLEADCVRGPDGVCL
Reply: 2.12

Task item: Tell us which protein stability index value is on record for LQQLRAFLQGLEADCVRGPDGVCL
Reply: 2.09

Task item: Tell us which protein stability index value is on record for LQQLRARLQGLEADCVTGPDGVCL
Reply: 3.19
